System: PBMC
Assay explanation: Anti-inflammatory activity in human PBMC assessed as inhibition of LPS-induced TNFalpha production at 10 uM after 24 hrs by ELISA relative to control
Assay type: functional
Class boundaries, taken from values of inhibition at 10 µM, are as follows: I (below 20%), II (20% to below 60%), III (60% or more)

These solved cases illustrate the format of a correct answer.
{"columns": ["Molecule", "Target", "Assigned label"],
 "data": [
  ["COc1ccc(-c2ccc(NC(=N)N)nc2)cc1", "PBMC", "II"],
  ["Nc1nc2ccc(-c3ccccc3)cc2[nH]1", "PBMC", "I"],
  ["N=C(N)Nc1cc(-c2cccc(Cl)c2)ccn1", "PBMC", "III"]
]}

Each molecule maps to one class by inhibition at 10 µM. Which class for N=C(N)Nc1ccc(-c2ccccc2Cl)cn1 ?
III

Please classify: COc1cccc(-c2ccnc(NC(=N)N)c2)c1
II

Pick a category. Item: N=C(N)Nc1ncccc1-c1ccccc1
I

// bin(item) where item = N=C(N)Nc1cccc(-c2cccc(Cl)c2)n1
III

Bin this entry: COc1cccc(-c2cccc(NC(=N)N)n2)c1
I

Bin this entry: COc1ccccc1-c1cccc(NC(=N)N)n1
I

Quick check: band for NC1=Nc2cc(-c3ccccc3)ccc2CCN1
I

Hi there! Could you help me figure out the category for N=C(N)Nc1cc(-c2ccccc2)ccn1 please?
III

State the class of the molecule shown: N=C(N)Nc1cccc(-c2ccccc2Cl)n1
II

Form field 'band' for N=C(N)Nc1ccc(-c2ccccc2)cn1
I

Category of N=C(N)Nc1cc(-c2ccc(Cl)cc2)ccn1 , please.
III

Exam item: assign N=C(N)Nc1cccc(-c2ccc(Cl)cc2)n1 to the correct category.
III

Hey, which category is N=C(N)Nc1ccc(-c2cccc(Cl)c2)cn1 in, do you know?
II

Given COc1ccc(-c2cccc(NC(=N)N)n2)cc1 , name the class its inhibition at 10 µM places it in.
II

Which bin should I file NC1=Nc2cc(-c3ccccc3)ccc2CN1 under?
III

State the band of NC1=Nc2ccc(-c3ccccc3)cc2CN1
II

Which bin, given its inhibition at 10 µM, does COc1ccccc1-c1ccnc(NC(=N)N)c1 occupy?
I

###

Assay explanation: Cytotoxicity against human PBMC assessed as cell viability at 10 um after 24 hrs by WST-1 assay relative to control
Type: cell-based
Setup conditions: PBMC (peripheral blood mononuclear cells), read-out: Activity
Param label: returns Y when viability at 24 h, 10 µM < 60%, returns N otherwise, including exact equality.

Worked cases, answers included:
{"columns": ["Test smiles", "Assigned label"],
 "data": [
  ["N=C(N)Nc1cc(-c2ccc(Cl)cc2)ccn1", "Y"],
  ["NC1=Nc2cc(-c3ccccc3)ccc2CCN1", "N"],
  ["N=C(N)Nc1ccc(-c2ccccc2Cl)cn1", "Y"],
  ["N=C(N)Nc1cc(-c2cccc(Cl)c2)ccn1", "Y"]
]}

Lab note: viability at 24 h, 10 µM threshold 60%. Does this compound come in strictly under it? N=C(N)Nc1ccc(-c2ccc(Cl)cc2)cn1
Y

Here's an entry: COc1ccc(-c2cccc(NC(=N)N)n2)cc1 . Is its viability at 24 h, 10 µM below 60%?
N

###

System: PBMC
Assay explanation: Anti-inflammatory activity in human PBMC assessed as inhibition of LPS-induced TNFalpha production at 10 uM after 24 hrs by ELISA relative to control
Format: functional
yes (1) means recorded inhibition at 10 µM is 60% or above; no (0) means it is below 60%.

I'd appreciate it if you could say whether N=C(N)Nc1cc(-c2ccccc2Cl)ccn1 has inhibition at 10 µM at least equal to 60%.
yes (1)

Entry COc1cccc(-c2ccc(NC(=N)N)nc2)c1 : is its inhibition at 10 µM no less than 60%?
no (0)

Would you say COc1ccc(-c2ccnc(NC(=N)N)c2)cc1 shows inhibition at 10 µM at minimum 60%?
yes (1)

Form field: inhibition at 10 µM at least 60%? Entry: N=C(N)Nc1cccc(-c2ccccc2)n1
no (0)

Does NC1=Nc2cccc(-c3ccccc3)c2CN1 have a reported inhibition at 10 µM of at least 60%?
no (0)

API: above_or_equal(metric=inhibition at 10 µM, cutoff=60%) for item COc1ccccc1-c1ccc(NC(=N)N)nc1
no (0)

Check if inhibition at 10 µM >= 60% (inclusive). Item: N=C(N)Nc1cc(-c2ccc(C(F)(F)F)cc2)ccn1
yes (1)

Please indicate if the recorded inhibition at 10 µM for N=C(N)Nc1ccc(-c2ccc(Cl)cc2)cn1 meets or exceeds 60%.
yes (1)

For this compound, is measured inhibition at 10 µM 60% or higher? COc1ccc(C2CNC(=O)C2)cc1OC1CCCC1 (stereo unspecified) [ROLIPRAM]
yes (1)

inhibition at 10 µM >= 60% for NC(=S)Nc1cc(-c2ccccc2)ccn1 ?
no (0)

Is inhibition at 10 µM for COc1ccccc1-c1ccc2c(c1)CNC(N)=N2 at or above 60%?
no (0)

###

Listed here: items and their measured viability at 24 h, 10 µM.
Assay explanation: Cytotoxicity against human PBMC assessed as cell viability at 10 um after 24 hrs by WST-1 assay relative to control
Assay type: cell-based
Setup conditions: PBMC (peripheral blood mononuclear cells), read-out: Activity
// note: answer is a bare numeric in %

{"columns": ["Test smiles", "viability at 24 h, 10 µM / %"],
 "data": [
  ["NC(N)=Nc1cc(-c2ccccc2)ccn1", 72],
  ["COc1ccccc1-c1ccc2c(c1)CNC(N)=N2", 126],
  ["N=C(N)Nc1cccc(-c2ccccc2)n1", 100],
  ["N=C(N)Nc1cccc(-c2ccc(Cl)cc2)n1", 35],
  ["COc1cccc(-c2ccnc(NC(=N)N)c2)c1", 66],
  ["NC1=Nc2cc(-c3ccccc3)ccc2CN1", 81],
  ["N=C(N)Nc1cc(-c2ccccc2Cl)ccn1", 42]
]}

Let's switch to this compound now.
Identify the reported viability at 24 h, 10 µM for the following entry. COc1cccc(-c2cccc(NC(=N)N)n2)c1
104
